// provenance: patent US20180222961A1

Biological target: T1, HLA-A*02:01 (human)
T1 construct: also called peptide-receptive MHC molecules
Assay: UV-exchange b2m ELISA; exchange-yield grade
quantity.kind: peptide exchange yield

INSERT INTO results (binder, quantity_kind, test_result) VALUES
  ('GVATRVDAI', 'peptide exchange yield', '20 to 50%'),
  ('FAHHGRSL', 'peptide exchange yield', '10 to 20%'),
  ('IMFDDAIERA', 'peptide exchange yield', '> 75%'),
  ('YLVTKVVAV', 'peptide exchange yield', '> 75%'),
  ('KVVSVLYNV', 'peptide exchange yield', '> 75%'),
  ('RMTTQLLLL', 'peptide exchange yield', '50 to 75%'),
  ('SAIPFSMTL', 'peptide exchange yield', '50 to 75%'),
  ('VLLAGFKPPL', 'peptide exchange yield', '10 to 20%'),
  ('VSSSLTLKV', 'peptide exchange yield', '10 to 20%'),
  ('YASEGVKQV', 'peptide exchange yield', '50 to 75%'),
  ('ALMRLIGCPL', 'peptide exchange yield', '> 75%'),
  ('GLLSLTSTLYL', 'peptide exchange yield', '> 75%'),
  ('ISVPAKTSL', 'peptide exchange yield', '10 to 20%'),
  ('DTDSSVHVQV', 'peptide exchange yield', '10 to 20%'),
  ('MMEEMIFNL', 'peptide exchange yield', '> 75%'),
  ('TISSLTHEL', 'peptide exchange yield', '> 75%'),
  ('SLPRFQVTL', 'peptide exchange yield', '> 75%'),
  ('KVLGVNVML', 'peptide exchange yield', '> 75%'),
  ('ALQAFEFRV', 'peptide exchange yield', '> 75%'),
  ('YLEDTDRNL', 'peptide exchange yield', '> 75%'),
  ('ALIYNLVGI', 'peptide exchange yield', '> 75%'),
  ('STIPALHEI', 'peptide exchange yield', '50 to 75%'),
  ('PLPRPGAVL', 'peptide exchange yield', '10 to 20%'),
  ('GLLQELSSI', 'peptide exchange yield', '> 75%'),
  ('SLLLPSIFL', 'peptide exchange yield', '> 75%'),
  ('FLDPDRHFL', 'peptide exchange yield', '> 75%'),
  ('SLGKHTVAL', 'peptide exchange yield', '50 to 75%'),
  ('TLLKALLEI', 'peptide exchange yield', '> 75%'),
  ('VLQGLLRSL', 'peptide exchange yield', '> 75%'),
  ('RLWDWVPLA', 'peptide exchange yield', '> 75%'),
  ('RQPNILVHL', 'peptide exchange yield', '20 to 50%'),
  ('RLLDFINVL', 'peptide exchange yield', '> 75%');
